From: paper PMC3961306

# %-inhibition, AurA/TPX2 values compiled below
# measurement-target: panel of more than 300 wild-type and mutant kinases (313 kinase panel) (Homo sapiens)
# test-description: Kinase profiling in a biochemical assay panel (mobility shift assays and ELISA), %-inhibition at 1 μM; selectivity entropy
# stated-conditions: kinase AurA/TPX2; 1 μM compound
Write the answer as a number in %, unit excluded.

Consider the reported %-inhibition, AurA/TPX2 for these molecules:
[
  {
    "molecule": "Cc1cn(-c2cc(NC(=O)c3ccc(C)c(Nc4nccc(-c5cccnc5)n4)c3)cc(C(F)(F)F)c2)cn1",
    "%-inhibition, AurA/TPX2 / %": -9
  },
  {
    "molecule": "CNC(=O)c1cc(Oc2ccc(NC(=O)Nc3ccc(Cl)c(C(F)(F)F)c3)c(F)c2)ccn1",
    "%-inhibition, AurA/TPX2 / %": -4
  },
  {
    "molecule": "COc1cc2nccc(Oc3ccc(NC(=O)C4(C(=O)Nc5ccc(F)cc5)CC4)cc3)c2cc1OC [cabozantinib]",
    "%-inhibition, AurA/TPX2 / %": 29
  }
]

Using the record for CS(=O)(=O)CCNCc1ccc(-c2ccc3ncnc(Nc4ccc(OCc5cccc(F)c5)c(Cl)c4)c3c2)o1 , report its %-inhibition, AurA/TPX2.
-10

Similarly, Cc1ccc(C(=O)Nc2ccc(CN3CCN(C)CC3)c(C(F)(F)F)c2)cc1C#Cc1cnc2cccnn12 ?
-3.42

Same again, this time with CCCS(=O)(=O)Nc1ccc(F)c(C(=O)c2c[nH]c3ncc(-c4ccc(Cl)cc4)cc23)c1F
-2.59

What do you have for CC(=O)Nc1cccc(-n2c(=O)n(C3CC3)c(=O)c3c(Nc4ccc(I)cc4F)n(C)c(=O)c(C)c32)c1 ?
-5.37

Next molecule up: N#CC[C@H](C1CCCC1)n1cc(-c2ncnc3[nH]ccc23)cn1
63

###

# measurement-target: panel of more than 300 wild-type and mutant kinases (313 kinase panel) (Homo sapiens)
# test-description: Kinase profiling in a biochemical assay panel (mobility shift assays and ELISA), %-inhibition at 1 μM; selectivity entropy
# stated-conditions: kinase GSK3α; compound at 1 μM
The entries below are paired with their reported %-inhibition of GSK3α.
Please give a number only; it is taken to be in %.

Here's what some known entries look like.
[
  {
    "compound": "CO[C@H]1C[C@@H]2CC[C@@H](C)[C@@](O)(O2)C(=O)C(=O)N2CCCC[C@H]2C(=O)O[C@H]([C@H](C)C[C@@H]2CC[C@@H](OCCO)[C@H](OC)C2)CC(=O)[C@H](C)/C=C(\\C)[C@@H](O)[C@@H](OC)C(=O)[C@H](C)C[C@H](C)/C=C/C=C/C=C/1C [everolimus]",
    "measurement-target": "panel of more than 300 wild-type and mutant kinases (313 kinase panel) (Homo sapiens)",
    "unit-info": "%",
    "%-inhibition of GSK3α": -14
  },
  {
    "compound": "COc1cc2c(Nc3ccc(Br)cc3F)ncnc2cc1OCC1CCN(C)CC1 [vandetanib]",
    "measurement-target": "panel of more than 300 wild-type and mutant kinases (313 kinase panel) (Homo sapiens)",
    "unit-info": "%",
    "%-inhibition of GSK3α": -5.37
  },
  {
    "compound": "Cc1ccc(Nc2nccc(N(C)c3ccc4c(C)n(C)nc4c3)n2)cc1S(N)(=O)=O [pazopanib]",
    "measurement-target": "panel of more than 300 wild-type and mutant kinases (313 kinase panel) (Homo sapiens)",
    "unit-info": "%",
    "%-inhibition of GSK3α": 6.5
  },
  {
    "compound": "COc1cc2nccc(Oc3ccc(NC(=O)C4(C(=O)Nc5ccc(F)cc5)CC4)cc3)c2cc1OC [cabozantinib]",
    "measurement-target": "panel of more than 300 wild-type and mutant kinases (313 kinase panel) (Homo sapiens)",
    "unit-info": "%",
    "%-inhibition of GSK3α": -10
  }
]

Okay, now this compound:
%-inhibition of GSK3α of CS(=O)(=O)CCNCc1ccc(-c2ccc3ncnc(Nc4ccc(OCc5cccc(F)c5)c(Cl)c4)c3c2)o1 [lapatinib] on panel of more than 300 wild-type and mutant kinases (313 kinase panel) (Homo sapiens)?
-8

###

# measurement-target: panel of more than 300 wild-type and mutant kinases (313 kinase panel) (Homo sapiens, UniProt Q08345)
# test-description: Kinase profiling in a biochemical assay panel (mobility shift assays and ELISA), %-inhibition at 1 μM; selectivity entropy
# stated-conditions: kinase DDR1; compound at 1 μM
readout-type: %-inhibition of DDR1 (%)
Report only the number, with the unit % understood.

[
  {
    "compound": "COc1cc2nccc(Oc3ccc(NC(=O)C4(C(=O)Nc5ccc(F)cc5)CC4)cc3)c2cc1OC [cabozantinib]",
    "%-inhibition of DDR1, %": 102
  }
]

Suppose we examine the compound CO[C@H]1C[C@@H]2CC[C@@H](C)[C@@](O)(O2)C(=O)C(=O)N2CCCC[C@H]2C(=O)O[C@H]([C@H](C)C[C@@H]2CC[C@@H](OCCO)[C@H](OC)C2)CC(=O)[C@H](C)/C=C(\C)[C@@H](O)[C@@H](OC)C(=O)[C@H](C)C[C@H](C)/C=C/C=C/C=C/1C ; what %-inhibition of DDR1 value has been reported?
-2.76

Now try CCCS(=O)(=O)Nc1ccc(F)c(C(=O)c2c[nH]c3ncc(-c4ccc(Cl)cc4)cc23)c1F .
52

Quick one: Cc1ccc(Nc2nccc(N(C)c3ccc4c(C)n(C)nc4c3)n2)cc1S(N)(=O)=O
97

Now the compound CO[C@H]1C[C@@H]2CC[C@@H](C)[C@@](O)(O2)C(=O)C(=O)N2CCCC[C@H]2C(=O)O[C@H]([C@H](C)C[C@@H]2CC[C@@H](OC(=O)C(C)(CO)CO)[C@H](OC)C2)CC(=O)[C@H](C)/C=C(\C)[C@@H](O)[C@@H](OC)C(=O)[C@H](C)C[C@H](C)/C=C/C=C/C=C/1C
-5.36

Also check COc1cc2c(Nc3ccc(Br)cc3F)ncnc2cc1OCC1CCN(C)CC1
100

###

# measurement-target: panel of more than 300 wild-type and mutant kinases (313 kinase panel) (Homo sapiens, UniProt P08069)
# test-description: Kinase profiling in a biochemical assay panel (mobility shift assays and ELISA), %-inhibition at 1 μM; selectivity entropy
# stated-conditions: kinase IGF1R; compound at 1 μM
Below is a list of entries, each paired with its recorded %-inhibition of IGF1R value.
State just the number; it will be interpreted in %.

Field: example entries. Status: answers known.
[
  {
    "item-smiles": "COc1cc(Nc2c(C#N)cnc3cc(OCCCN4CCN(C)CC4)c(OC)cc23)c(Cl)cc1Cl",
    "experimental-value": 15
  },
  {
    "item-smiles": "N#CC[C@H](C1CCCC1)n1cc(-c2ncnc3[nH]ccc23)cn1",
    "experimental-value": 1.31
  },
  {
    "item-smiles": "CO[C@H]1C[C@@H]2CC[C@@H](C)[C@@](O)(O2)C(=O)C(=O)N2CCCC[C@H]2C(=O)O[C@H]([C@H](C)C[C@@H]2CC[C@@H](OC(=O)C(C)(CO)CO)[C@H](OC)C2)CC(=O)[C@H](C)/C=C(\\C)[C@@H](O)[C@@H](OC)C(=O)[C@H](C)C[C@H](C)/C=C/C=C/C=C/1C",
    "experimental-value": -4.62
  },
  {
    "item-smiles": "CO[C@H]1C[C@@H]2CC[C@@H](C)[C@@](O)(O2)C(=O)C(=O)N2CCCC[C@H]2C(=O)O[C@H]([C@H](C)C[C@@H]2CC[C@@H](OCCO)[C@H](OC)C2)CC(=O)[C@H](C)/C=C(\\C)[C@@H](O)[C@@H](OC)C(=O)[C@H](C)C[C@H](C)/C=C/C=C/C=C/1C",
    "experimental-value": -3.24
  }
]

# %-inhibition of IGF1R lookup, item Cc1ccc(C(=O)Nc2ccc(CN3CCN(C)CC3)c(C(F)(F)F)c2)cc1C#Cc1cnc2cccnn12
17

###

# measurement-target: panel of more than 300 wild-type and mutant kinases (313 kinase panel) (Homo sapiens, UniProt Q08345)
# test-description: Kinase profiling in a biochemical assay panel (mobility shift assays and ELISA), %-inhibition at 1 μM; selectivity entropy
# stated-conditions: kinase DDR1; compound at 1 μM
readout-type: %-inhibition of DDR1 (%)
Please state the figure in %; there is no need to write the unit.

[
  {
    "item-smiles": "COc1cc(Nc2c(C#N)cnc3cc(OCCCN4CCN(C)CC4)c(OC)cc23)c(Cl)cc1Cl",
    "experimental-value": 97
  },
  {
    "item-smiles": "O=S(=O)(c1cccc2cnccc12)N1CCCNCC1",
    "experimental-value": -1.19
  },
  {
    "item-smiles": "C[C@@H](Oc1cc(-c2cnn(C3CCNCC3)c2)cnc1N)c1c(Cl)ccc(F)c1Cl",
    "experimental-value": 97
  },
  {
    "item-smiles": "CNC(=O)c1cc(Oc2ccc(NC(=O)Nc3ccc(Cl)c(C(F)(F)F)c3)c(F)c2)ccn1",
    "experimental-value": 101
  },
  {
    "item-smiles": "CC(=O)Nc1cccc(-n2c(=O)n(C3CC3)c(=O)c3c(Nc4ccc(I)cc4F)n(C)c(=O)c(C)c32)c1",
    "experimental-value": -2
  },
  {
    "item-smiles": "Cc1cn(-c2cc(NC(=O)c3ccc(C)c(Nc4nccc(-c5cccnc5)n4)c3)cc(C(F)(F)F)c2)cn1",
    "experimental-value": 103
  },
  {
    "item-smiles": "CS(=O)(=O)CCNCc1ccc(-c2ccc3ncnc(Nc4ccc(OCc5cccc(F)c5)c(Cl)c4)c3c2)o1",
    "experimental-value": 33
  }
]

# %-inhibition of DDR1 lookup, item CC(C)(C)c1nc(-c2cccc(NS(=O)(=O)c3c(F)cccc3F)c2F)c(-c2ccnc(N)n2)s1
96
